- method_description: NCI Yeast Anticancer Drug Screen. Data for the sgs1 mgt1 strain (AID 161);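 further: 0% = growth of cultures given vehicle only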
- measurement_context: S. cerevisiae sgs1 mgt1 strain, at 50.0 µM, active compounds read high
This is part of a sample that, as a whole, favours compounds with a hit. Of some 79,000 tested, about 15% had one in any assay.
readout_kind: growth inhibition (%)
Give your result in % as a bare value.

Lookup: Read off the recorded growth inhibition for "CCN(CC)CCNc1ccc2ncn3c4cc(OC)c(OC)c(=O)c4c(O)c1c23"
Found: 12.8

###

- method_description: NCI Yeast Anticancer Drug Screen. Data for the CLN2oe strain (AID 163);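 further: 0% = growth of vehicle-only control cultures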
- measurement_context: S. cerevisiae CLN2oe strain, at 3.7 µM
This is part of a sample that, as a whole, favours compounds with a hit. Of some 79,000 tested, about 15% had one in any assay. Calls of active or inactive are those of the source. Rule as the data show it: active = growth inhibition above about 70%; inactive = the rest.
Hello, when you answer, please use one of the following outcomes: class 1 = active, class 0 = inactive

Recorded results for 8 compounds are shown here.
COC(=O)Nc1cn2ccc(C(Cl)=C(Cl)Cl)cc2n1 = class 0
Cc1c(C(C)C)cc(OCCO)cc1C(C)C = class 0
CN(C)N=Nc1ccccc1C(=O)NC#N = class 0
Cc1c(C)c(C)c(CSC(=N)N)c(C)c1C = class 0
COC(=O)/C=C(/CC(=O)OC)C(=O)OC = class 0
Cc1cc(C(C)(C)CC(C)(C)C)ccc1O = class 0
CCCCc1nnc(NS(=O)(=O)c2ccc(C)cc2)s1 = class 0
Cc1ccc(Sc2ccccc2N)cc1 = class 0

Lookup: Assay result, entry Cc1ccc(CC2(OCCN(C)C)CCC(C(C)(C)C)CC2)cc1 (configuration not stated) — outcome?
Found: class 0

Lookup: Assay result, entry "COc1cc(CSc2ccc(O)cc2)cc(O)c1O" — outcome?
Found: class 0

Lookup: Assay result, entry N#CC1=C(N)N(/N=C/c2ccccc2)C(c2ccccc2)C1(C#N)C#N (configuration not stated) — outcome?
Found: class 0

Lookup: Assay result, entry "COc1cc([C@@H]2c3cc4c(cc3[C@@H](Nc3ccc(NC(=O)c5cc([N+](=O)[O-])cn5C)cc3)[C@H]3COC(=O)[C@H]23)OCO4)cc(OC)c1O" — outcome?
Found: class 0

Lookup: Assay result, entry CC(=O)OC1CC2C(C)(C)C(=O)C=C[C@]2(C)C2CCC3(C)C(=CCC3[C@H](CO)C[C@H](O)C(=O)C(C)(C)O)[C@]12C (some centres not stated) — outcome?
Found: class 0

Lookup: Assay result, entry "Cn1c(-c2ccc(/C=N\N3CCN(/N=C/c4ccc(-c5c[n+]6ccccc6n5C)cc4)CC3)cc2)c[n+]2ccccc12" — outcome?
Found: class 0

Lookup: Assay result, entry "CCOc1c(N=Nc2ccccc2OC)c(C)nn1C(=S)S" — outcome?
Found: class 0

Lookup: Assay result, entry CCCCCCCCCCCC1N=C(N)NC(CCCO)=C1C(=O)OC (configuration not stated) — outcome?
Found: class 1

Lookup: Assay result, entry "Cc1c2cc[n+](Cc3ccc(I)cc3)cc2c(C)c2c1[nH]c1ccccc12" — outcome?
Found: class 0

Lookup: Assay result, entry "CCN(CC)CCNc1ccc2ncn3c4cc(OC)c(OC)c(=O)c4c(O)c1c23" — outcome?
Found: class 0

Lookup: Assay result, entry Cc1ccc(NC(=O)/C(CC2N=c3c(ccc4c(O)c5ccccc5c(O)c34)=NC2O)=N/NC(C)(C)C)cc1 (configuration not stated) — outcome?
Found: class 0
